- measurement_target: Follistatin (Homo sapiens) (UniProt P19883)
- Sequence (P19883 whole entry, looked up): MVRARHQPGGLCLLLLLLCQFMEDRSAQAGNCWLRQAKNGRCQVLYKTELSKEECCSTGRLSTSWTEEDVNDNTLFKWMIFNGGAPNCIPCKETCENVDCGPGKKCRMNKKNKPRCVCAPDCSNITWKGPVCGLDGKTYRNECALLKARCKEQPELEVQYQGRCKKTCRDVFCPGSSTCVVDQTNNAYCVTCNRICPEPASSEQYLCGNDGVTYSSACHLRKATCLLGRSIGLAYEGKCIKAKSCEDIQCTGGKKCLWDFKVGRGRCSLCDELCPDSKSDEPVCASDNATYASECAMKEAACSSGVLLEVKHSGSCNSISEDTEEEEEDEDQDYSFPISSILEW
- assay_summary: FST protein binding to printed compounds – biochemical, small-molecule microarray, 635/667 nm fluorescence, primary screen (AID 1132)
- test_conditions: 635 nm fluorescence, higher = more signal
measurement_kind: composite z-score

>>> numeric_readout("C=C(C)[C@@H]1CC=C(C(O)C2C=CC3C(=O)N(C4CCCCC4)C(=O)C3N2Nc2ccc(OC)cc2)CC1 (some centres not stated)")
1.17
>>> numeric_readout("COc1ccccc1CN1C(=O)c2ccccc2[C@](Cc2ccccc2I)(C(=O)NCCN2CCOCC2)[C@@H]1c1ccc(CO)cc1")
1.41
>>> numeric_readout("COCCOC(=O)N1C(=O)[C@@]2(c3cc(C#CCNC(N)=O)ccc31)[C@H](C(=O)N1CCCCCCC1)[C@H]1C(=O)O[C@H](c3ccccc3)[C@H](c3ccccc3)N1[C@@H]2c1ccc(OCCO)cc1")
1.15
>>> numeric_readout("C=C(COC)/C(=C/C[C@@H](OC(=O)c1ccncc1)c1cccc(OCCO)c1)c1cc(C(=O)OC)ccc1OC")
1.42
>>> numeric_readout("CN(C)CCCCNC(=O)[C@H]1C[C@H]2C(=O)N[C@@H](CCCC[N+](C)(C)C)C(=O)N2[C@H]1c1cccc(OCCO)c1")
1.35
>>> numeric_readout("O=C1O[C@H](c2ccccc2)[C@H](c2ccccc2)N2[C@H]1[C@@H](C(=O)N1CCCCCCC1)[C@]1(C(=O)Nc3ccccc31)[C@H]2c1ccc(O)cc1")
1.55
>>> numeric_readout("COC(=O)c1c(CC[C@@H](CO)NC(=O)N[C@@H](C)Cn2cc(C3(O)CCCC3)nn2)oc(C(C)=O)c1C(=O)OC")
0.511
